biological target: EGFR (mouse); conditions: nih3t3/her14
pIC50: −log10 of the molar value.

smiles.code	pIC50
CNN=Nc1ccc2ncnc(Nc3cccc(Br)c3)c2c1	5.06
Cn1nnc2c(C(N)=O)ncn2c1=O	3.68
CC(=O)N(C)N=Nc1ccc2ncnc(Nc3cccc(C)c3)c2c1	3.83
COc1cc2ncnc(Nc3cccc(Cl)c3)c2cc1OC	5.01
CNN=Nc1ccc2ncnc(Nc3cccc(C)c3)c2c1	4.54
COc1cc2ncnc(Nc3cccc(Cl)c3)c2cc1OC.Cn1nnc2c(C(N)=O)ncn2c1=O	5.21
CC(=O)OCN(C)N=Nc1ccc2ncnc(Nc3cccc(Br)c3)c2c1	5.47
Nc1ccc2ncnc(Nc3cccc(Br)c3)c2c1	4.98
CN(CO)N=Nc1ccc2ncnc(Nc3cccc(Br)c3)c2c1	5.68
